The following compounds are shown together with reported AUC(0-inf) values.
# TEST DETAILS: Pharmacokinetic test in vivo in SD rats
# Design: species or system male SD rats
# ASSAY SETUP: male, rat, plasma, iv, 10 mg/kg, administrated intravenously
Value expressed in µg·h/mL; do not type the unit.

Example cases with answers are listed next.
COMPOUND	AUC(0-inf) (µg·h/mL)
OC[C@H]1O[C@@H](c2ccc(Cl)c(C(F)(F)c3ccc(OCC(F)(F)F)cc3)c2)[C@H](O)[C@@H](O)[C@@H]1O [Compound 3]	260
CCOc1ccc(Cc2cc([C@@H]3O[C@H](CO)[C@@H](O)[C@H](O)[C@H]3O)ccc2Cl)cc1 [Compound 1, Dapagliflozin, reference compound]	56.5

Read the next record carefully.
Query: Quick one: AUC(0-inf) for OC[C@H]1O[C@@H](c2ccc(Cl)c(Cc3ccc(OCC(F)(F)F)cc3)c2)[C@H](O)[C@@H](O)[C@@H]1O [Compound 2] ?
Result: 107

---

The following molecules are shown together with reported Tmax values.
# TEST DETAILS: Pharmacokinetic test in vivo in SD rats
# Design: species or system male SD rats
# ASSAY SETUP: male, rat, plasma, po, 10 mg/kg, administrated orally

MOLECULE	REPORTED METRIC	VALUE
OC[C@H]1O[C@@H](c2ccc(Cl)c(C(F)(F)c3ccc(OCC(F)(F)F)cc3)c2)[C@H](O)[C@@H](O)[C@@H]1O [Compound 3]	Tmax	8 h
CCOc1ccc(Cc2cc([C@@H]3O[C@H](CO)[C@@H](O)[C@H](O)[C@H]3O)ccc2Cl)cc1 [Compound 1, Dapagliflozin, reference compound]	Tmax	1.25 h

Query: Quick one: Tmax for OC[C@H]1O[C@@H](c2ccc(Cl)c(Cc3ccc(OCC(F)(F)F)cc3)c2)[C@H](O)[C@@H](O)[C@@H]1O [Compound 2] ?
Result: 1.25 h

---

# TEST DETAILS: Pharmacokinetic test in vivo in SD rats
# Parameters: species or system male SD rats
# ASSAY SETUP: male, rat, plasma, po, 10 mg/kg, administrated orally
The following compounds are shown together with reported C0 values.
Value expressed in ng/mL; do not type the unit.

Example cases with answers are listed next.
COMPOUND	C0 [ng/mL]
CCOc1ccc(Cc2cc([C@@H]3O[C@H](CO)[C@@H](O)[C@H](O)[C@H]3O)ccc2Cl)cc1 [Compound 1, Dapagliflozin, reference compound]	3880
OC[C@H]1O[C@@H](c2ccc(Cl)c(Cc3ccc(OCC(F)(F)F)cc3)c2)[C@H](O)[C@@H](O)[C@@H]1O	5090

Read the next record carefully.
Query: Quick one: C0 for OC[C@H]1O[C@@H](c2ccc(Cl)c(C(F)(F)c3ccc(OCC(F)(F)F)cc3)c2)[C@H](O)[C@@H](O)[C@@H]1O ?
Result: 1400

---

# TEST DETAILS: Pharmacokinetic test in vivo in SD rats
# Parameters: species or system male SD rats
# ASSAY SETUP: male, rat, plasma, iv, 10 mg/kg, administrated intravenously
The following molecules are shown together with reported half-life values.
Value expressed in h; do not type the unit.

Example cases with answers are listed next.
MOLECULE	MEASUREMENT UNIT	half-life
OC[C@H]1O[C@@H](c2ccc(Cl)c(Cc3ccc(OCC(F)(F)F)cc3)c2)[C@H](O)[C@@H](O)[C@@H]1O [Compound 2]	h	9.8
OC[C@H]1O[C@@H](c2ccc(Cl)c(C(F)(F)c3ccc(OCC(F)(F)F)cc3)c2)[C@H](O)[C@@H](O)[C@@H]1O [Compound 3]	h	28.3

Read the next record carefully.
Query: Quick one: half-life for CCOc1ccc(Cc2cc([C@@H]3O[C@H](CO)[C@@H](O)[C@H](O)[C@H]3O)ccc2Cl)cc1 [Compound 1, Dapagliflozin, reference compound] ?
Result: 3.95

---

The following compounds are shown together with reported AUC(0-inf) values.
# TEST DETAILS: Pharmacokinetic test in vivo in SD rats
# Set-up: species or system male SD rats
# ASSAY SETUP: male, rat, plasma, po, 10 mg/kg, administrated orally
Value expressed in ng·h/mL; do not type the unit.

COMPOUND	MEASUREMENT UNIT	AUC(0-inf)
CCOc1ccc(Cc2cc([C@@H]3O[C@H](CO)[C@@H](O)[C@H](O)[C@H]3O)ccc2Cl)cc1 [Compound 1, Dapagliflozin, reference compound]	ng·h/mL	39100
OC[C@H]1O[C@@H](c2ccc(Cl)c(Cc3ccc(OCC(F)(F)F)cc3)c2)[C@H](O)[C@@H](O)[C@@H]1O	ng·h/mL	193000

Query: Quick one: AUC(0-inf) for OC[C@H]1O[C@@H](c2ccc(Cl)c(C(F)(F)c3ccc(OCC(F)(F)F)cc3)c2)[C@H](O)[C@@H](O)[C@@H]1O ?
Result: 44700

---

The following compounds are shown together with reported half-life values.
# TEST DETAILS: Pharmacokinetic test in vivo in SD rats
# Set-up: species or system male SD rats
# ASSAY SETUP: male, rat, plasma, po, 10 mg/kg, administrated orally
Value expressed in h; do not type the unit.

COMPOUND	VALUE
OC[C@H]1O[C@@H](c2ccc(Cl)c(C(F)(F)c3ccc(OCC(F)(F)F)cc3)c2)[C@H](O)[C@@H](O)[C@@H]1O	20.4

Query: Quick one: half-life for OC[C@H]1O[C@@H](c2ccc(Cl)c(Cc3ccc(OCC(F)(F)F)cc3)c2)[C@H](O)[C@@H](O)[C@@H]1O ?
Result: 30

Query: Quick one: half-life for CCOc1ccc(Cc2cc([C@@H]3O[C@H](CO)[C@@H](O)[C@H](O)[C@H]3O)ccc2Cl)cc1 [Compound 1, Dapagliflozin, reference compound] ?
Result: 4.14

---

The following molecules are shown together with reported AUC(0-t) values.
# TEST DETAILS: Pharmacokinetic test in vivo in SD rats
# Set-up: species or system male SD rats
# ASSAY SETUP: male, rat, plasma, po, 10 mg/kg, administrated orally
Value expressed in ng·h/mL; do not type the unit.

Example cases with answers are listed next.
MOLECULE	AUC(0-t), ng·h/mL
OC[C@H]1O[C@@H](c2ccc(Cl)c(Cc3ccc(OCC(F)(F)F)cc3)c2)[C@H](O)[C@@H](O)[C@@H]1O	77300
OC[C@H]1O[C@@H](c2ccc(Cl)c(C(F)(F)c3ccc(OCC(F)(F)F)cc3)c2)[C@H](O)[C@@H](O)[C@@H]1O	20800

Read the next record carefully.
Query: Quick one: AUC(0-t) for CCOc1ccc(Cc2cc([C@@H]3O[C@H](CO)[C@@H](O)[C@H](O)[C@H]3O)ccc2Cl)cc1 [Compound 1, Dapagliflozin, reference compound] ?
Result: 41400

---

# TEST DETAILS: Pharmacokinetic test in vivo in SD rats
# Design: species or system male SD rats
# ASSAY SETUP: male, rat, plasma, iv, 10 mg/kg, administrated intravenously
REPORTED METRIC: C0 (ng/mL)
Value expressed in ng/mL; do not type the unit.

MOLECULE	C0 / ng/mL
OC[C@H]1O[C@@H](c2ccc(Cl)c(Cc3ccc(OCC(F)(F)F)cc3)c2)[C@H](O)[C@@H](O)[C@@H]1O	11300
CCOc1ccc(Cc2cc([C@@H]3O[C@H](CO)[C@@H](O)[C@H](O)[C@H]3O)ccc2Cl)cc1 [Compound 1, Dapagliflozin, reference compound]	11000

Read the next record carefully.
Query: Quick one: C0 for OC[C@H]1O[C@@H](c2ccc(Cl)c(C(F)(F)c3ccc(OCC(F)(F)F)cc3)c2)[C@H](O)[C@@H](O)[C@@H]1O ?
Result: 6640

---

The following molecules are shown together with reported bioavailability values.
# TEST DETAILS: Pharmacokinetic test in vivo in SD rats
# Set-up: species or system male SD rats
# ASSAY SETUP: male, rat, plasma, po, 10 mg/kg, administrated orally, read-out: F (oral bioavailability)
Value expressed in %; do not type the unit.

MOLECULE	bioavailability / %
OC[C@H]1O[C@@H](c2ccc(Cl)c(Cc3ccc(OCC(F)(F)F)cc3)c2)[C@H](O)[C@@H](O)[C@@H]1O	88
CCOc1ccc(Cc2cc([C@@H]3O[C@H](CO)[C@@H](O)[C@H](O)[C@H]3O)ccc2Cl)cc1 [Compound 1, Dapagliflozin, reference compound]	69.1

Read the next record carefully.
Query: Quick one: bioavailability for OC[C@H]1O[C@@H](c2ccc(Cl)c(C(F)(F)c3ccc(OCC(F)(F)F)cc3)c2)[C@H](O)[C@@H](O)[C@@H]1O ?
Result: 17.2

---

# TEST DETAILS: Pharmacokinetic test in vivo in SD rats
# Design: species or system male SD rats
# ASSAY SETUP: male, rat, plasma, iv, 10 mg/kg, administrated intravenously
REPORTED METRIC: MRT (h)
Value expressed in h; do not type the unit.

Example cases with answers are listed next.
COMPOUND	MEASUREMENT UNIT	VALUE
OC[C@H]1O[C@@H](c2ccc(Cl)c(Cc3ccc(OCC(F)(F)F)cc3)c2)[C@H](O)[C@@H](O)[C@@H]1O	h	7.35
CCOc1ccc(Cc2cc([C@@H]3O[C@H](CO)[C@@H](O)[C@H](O)[C@H]3O)ccc2Cl)cc1 [Compound 1, Dapagliflozin, reference compound]	h	4.76

Read the next record carefully.
Query: Quick one: MRT for OC[C@H]1O[C@@H](c2ccc(Cl)c(C(F)(F)c3ccc(OCC(F)(F)F)cc3)c2)[C@H](O)[C@@H](O)[C@@H]1O ?
Result: 10.1
